assay-comment: basal MM1S mitochondrial membrane potential changes, profiling panel, cell-based, JC-1 fluorescence, 24 h, 100 nL compound (AID 1170); further: test concentration not given here
test-conditions: higher = more signal
Class (required): determined from z-score; valid ranges are low interval (below -0.9), middle interval (-0.9 to below -0.2), high interval (-0.2 or more)

Completed entries (count: 3):
Would you mind sorting CCN(CC)c1ccc(N2CC=CC34O[C@@H]5C=CCOC(=O)[C@@H]5[C@H]3C(=O)N(CCCO)[C@@H]4C2=O)cc1 (stereo partly specified) into the appropriate category?
high interval

Would you mind sorting C=CCC(OC(C)=O)[C@@H]1[C@@H](N(Cc2ccc(-c3cccc(C(F)(F)F)c3)o2)C(=O)Cc2ccc(OC)cc2)c2cc(OCCCO)ccc2N1C(=O)c1ccc2ccccc2n1 (stereo partly specified) into the appropriate category?
high interval

Would you mind sorting CCC(CC)C(O)C1C=CC2C(=O)N(C)C(=O)C2N1N1CCCCC1 (stereo unspecified) into the appropriate category?
middle interval

More entries:
Would you mind sorting `COCCOC(=O)N1C(=O)[C@@]2(c3cc(C#CC4(O)CCCCCC4)ccc31)[C@H](C(=O)NC[C@H](O)c1ccccc1)[C@H]1C(=O)O[C@H](c3ccccc3)[C@H](c3ccccc3)N1[C@@H]2c1ccc(O)cc1` into the appropriate category?
high interval

Would you mind sorting `CCCCC(=C=CC[C@@H](O)c1ccc(OCCO)cc1)C[C@@H](O)c1ccccn1` into the appropriate category?
low interval

Would you mind sorting `CCOC(=O)C[C@H]1[C@H](OC(=O)c2ccc(-c3ccccc3)cc2)[C@@H](NC(=O)c2ccc3ccccc3c2)c2cc(OCCCO)ccc2N1C(=O)c1ccccc1` into the appropriate category?
high interval

Would you mind sorting `CCOC(=O)C1=CC[C@@H](c2ccccc2)N(S(=O)(=O)c2ccc(C)cc2)[C@H]1C#N` into the appropriate category?
low interval

Would you mind sorting `CN(C)CCCC[C@@H]1NC(=O)[C@@H]2C[C@H](C(=O)NCc3ccc(F)cc3)[C@H](c3ccc(O)cc3)N2C1=O` into the appropriate category?
high interval

---

assay-comment: binders of probe aHhip on microarray, primary screen, stem cell growth factor project, biochemical, small-molecule microarray, fluorescence 635/667 (AID 1087);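 further: score merges spot fluorescence at 667nm with spot signal to noise ratio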
test-conditions: higher = more signal
Tag: Y if measured composite z-score is not below 0.005, N if it is.

Please tell me: is the molecule CC1CC/C=C\[C@H]2OC34C=CCN(c5ccc(Cl)cc5)C(=O)[C@H]3N(CCCO)C(=O)[C@]4(C)C2C(=O)O1 (some centres not stated) at or over 0.005 in terms of composite z-score?
N

Please tell me: is the molecule `NC(=O)NCC#Cc1ccc2c(c1)[C@]1(C(=O)N2)[C@H](C(=O)Nc2nc3ccccc3s2)[C@H]2C(=O)O[C@H](c3ccccc3)[C@H](c3ccccc3)N2[C@@H]1c1ccc(OCCO)cc1` at or over 0.005 in terms of composite z-score?
N

Please tell me: is the molecule N#Cc1ccc(C(O)C2C=CC3C(=O)N(c4ccccc4)C(=O)C3N2Nc2ccc([N+](=O)[O-])cc2)cc1 (configuration not stated) at or over 0.005 in terms of composite z-score?
N

Please tell me: is the molecule C=CCC(OC(C)=O)[C@@H]1[C@@H](N(Cc2cc3ccccc3o2)C(=O)c2cccc3ccccc23)c2cc(OCCCO)ccc2N1C(=O)c1ccc2ccccc2c1 (some centres not stated) at or over 0.005 in terms of composite z-score?
N

Please tell me: is the molecule `CCC[C@@H]1C=C(C(=O)OCC)[C@H](c2ccccc2)N1S(=O)(=O)c1ccc(C)cc1` at or over 0.005 in terms of composite z-score?
N

Please tell me: is the molecule `[N-]=[N+]=NCc1ccccc1C[C@]1(C(=O)NCc2ccccc2)N=C(c2ccc(OCCCO)cc2)O[C@H]1c1ccccc1CN=[N+]=[N-]` at or over 0.005 in terms of composite z-score?
N

The reported numbers originate from PubChem BioAssay.
